Target: TLR9 (Homo sapiens, UniProt Q9NR96)
Construct: expressed in transfected cells; host or cells: HEK293
Assay: TLR9 screening of (+)-morphinan library, SEAP reporter in HEK293 cells expressing TLR9
Type: cell-based
Details: HEK293; 100 nM; activator ODN2006; read-out: % Inhibition (mean)
Reported inhibition at 0.1 µM values follow for various compounds
State just the number; it will be interpreted in %.

Use these answered entries as a reference point.
[[record]]
compound = "C=CCN1CCc2cc(OC)ccc2[C@H]1Cc1ccc(OC)c(O)c1 [III-2]"
endpointvalue = 21

[[record]]
compound = "COc1ccc2c(c1)CCN(CC1CC1)[C@@H]2Cc1ccc(OC)c(O)c1 [III-3]"
endpointvalue = 27

[[record]]
compound = "COc1ccc2c(c1)CCN(CC1CCC1)[C@@H]2Cc1ccc(OC)c(O)c1 [III-4]"
endpointvalue = 27

[[record]]
compound = "COc1ccc2c(c1)CCN[C@@H]2Cc1ccc(OC)c(O)c1 [III-1]"
endpointvalue = 6


Next compound, please.
For the record COc1ccc2c(c1)CCN(C)[C@@H]2Cc1ccc(OC)c(O)c1 [III-5] , what value of inhibition at 0.1 µM is listed for TLR9 (Homo sapiens, UniProt Q9NR96)?
22

====

Target: TLR9 (Homo sapiens, UniProt Q9NR96)
Construct: expressed in transfected cells; host or cells: HEK293
Sequence (Q9NR96 26-1032): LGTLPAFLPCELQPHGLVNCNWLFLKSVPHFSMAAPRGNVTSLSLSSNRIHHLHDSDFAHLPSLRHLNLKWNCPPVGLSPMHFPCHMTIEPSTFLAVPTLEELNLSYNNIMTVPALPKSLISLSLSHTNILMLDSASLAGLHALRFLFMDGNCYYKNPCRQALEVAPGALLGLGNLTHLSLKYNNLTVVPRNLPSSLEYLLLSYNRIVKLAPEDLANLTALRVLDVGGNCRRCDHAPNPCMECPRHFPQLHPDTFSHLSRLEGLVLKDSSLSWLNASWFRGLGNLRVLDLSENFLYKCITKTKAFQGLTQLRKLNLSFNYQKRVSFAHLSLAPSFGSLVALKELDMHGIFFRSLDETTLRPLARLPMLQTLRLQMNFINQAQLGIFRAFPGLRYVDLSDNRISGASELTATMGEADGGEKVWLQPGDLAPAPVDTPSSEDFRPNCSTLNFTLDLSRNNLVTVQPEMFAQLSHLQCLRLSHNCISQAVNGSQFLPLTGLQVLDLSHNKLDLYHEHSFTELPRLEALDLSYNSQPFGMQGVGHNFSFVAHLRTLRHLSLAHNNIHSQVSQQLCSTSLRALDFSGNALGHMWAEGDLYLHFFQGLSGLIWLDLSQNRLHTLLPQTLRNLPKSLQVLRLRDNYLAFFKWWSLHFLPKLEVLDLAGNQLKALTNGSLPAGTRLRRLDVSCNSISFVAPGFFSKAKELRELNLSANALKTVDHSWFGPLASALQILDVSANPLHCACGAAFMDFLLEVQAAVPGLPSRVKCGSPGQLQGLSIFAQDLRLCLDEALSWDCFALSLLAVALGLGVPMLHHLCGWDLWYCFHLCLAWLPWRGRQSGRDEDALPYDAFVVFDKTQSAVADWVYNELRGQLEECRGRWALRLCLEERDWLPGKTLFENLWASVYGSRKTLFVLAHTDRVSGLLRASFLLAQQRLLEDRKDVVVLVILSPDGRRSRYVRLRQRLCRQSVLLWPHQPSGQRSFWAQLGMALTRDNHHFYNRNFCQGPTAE
Test: TLR9 screening of (+)-morphinan library, SEAP reporter in HEK293 cells expressing TLR9
Type: cell-based
Conditions: HEK293, read-out: % Inhibition (mean), 100 nM; activator ODN2006
recordedMetric: inhibition at 0.1 µM
Write the numeric value and append its unit.

Worked examples follow.
[[record]]
compound = "C=CCN1CC[C@]23C4=CC=C(OC)[C@H]2Oc2c(OC)ccc(c23)C[C@@H]41 [II-35]"
endpointvalue = "27%"

[[record]]
compound = "OCCNC1CC[C@]2(O)[C@@H]3Cc4ccc(O)c5c4[C@]2(CCN3CC2CC2)[C@@H]1O5 (stereo partly shown) [II-76]"
endpointvalue = "89%"

[[record]]
compound = "CN(C(=O)/C=C/c1ccoc1)[C@H]1CC[C@]2(O)[C@@H]3Cc4ccc(O)c5c4[C@]2(CC[N+]3([O-])CC2CC2)[C@@H]1O5 (stereo partly shown) [II-63]"
endpointvalue = "84%"


Here's the next entry for you.
Recorded inhibition at 0.1 µM of COc1ccc2c3c1O[C@@H]1C(N)CC[C@]4(O)[C@H](C2)N(C)CC[C@@]314 (stereo partly shown) [II-43] , please.
93%
